For each entry below, report its Td 5% value.
Assay: Pyrolysis temperature (Td 5%) analysis by TGA
Format: physicochemical
Settings: 25-800° C., 10° C./min, N2
Be sure to follow the number with its unit.

CCCCN1/C(=C\C=C2/CCC(/C=C/C3=[N+](CCCC)c4ccccc4C3(C)C)=C2Cl)C(C)(C)c2ccccc21 186 °C
CCCCN1\C(=C/C=C/C=C/C=C/C2=[N+](CCCC)c3ccc4ccccc4c3C2(C)C)C(C)(C)c2c1ccc1ccccc21 211 °C

Please examine the following record next.
Query: Consider the compound shown here: CCCCN1\C(=C/C=C/C=C/C=C/C2=[N+](CCCC)c3ccccc3C2(C)C)C(C)(C)c2ccccc21 What is its recorded Td 5%?
Response: 215 °C

Hello, the source for this data is patent US20250197641A1, in case you need it.
